The reported numbers originate from paper PMC3274548.

system: Streptococcus pyogenes; test: MIC, broth microdilution with Alamar Blue; assay type: cell-based; conditions: Streptococcus pyogenes; read-out: MIC S. pyogenes
Checkbox rule: MIC lower than 0.1 µg/mL = 1.0; MIC not lower than 0.1 µg/mL = 0.0.

Query: Please check: MIC for `CCc1nc(N)nc(N)c1C#CCc1cc(OC)cc(-c2ccncc2)c1` , strictly under 0.1 µg/mL or not?
Reply: 1.0

Query: Does `CCc1nc(N)nc(N)c1C#CCc1cccc(-c2cccnc2)c1` have MIC strictly under 0.1 µg/mL?
Reply: 1.0

Query: Quick check: MIC of COc1cc(C(C)C#Cc2c(C)nc(N)nc2N)cc(N2CCOCC2)c1 (stereo not drawn) under 0.1 µg/mL?
Reply: 0.0

Query: Consider the compound CCc1nc(N)nc(N)c1C#CC(C)c1cc(OC)cc(-c2ccncc2)c1 (stereo not drawn) . Is its MIC strictly less than 0.1 µg/mL?
Reply: 1.0

Query: Problem: For the compound `CCc1nc(N)nc(N)c1C#CCc1cc(-c2ccncc2)ccc1OC` , is MIC under 0.1 µg/mL?
Reply: 1.0

***
Query: Please let me know if `CCc1nc(N)nc(N)c1C#CCc1cc(-c2ccccc2)ccc1OC` shows MIC below 0.1 µg/mL.
Reply: 1.0

Query: Answer whether the compound `CCc1nc(N)nc(N)c1C#CCc1cccc(-c2cncnc2)c1` has MIC strictly less than 0.1 µg/mL
Reply: 0.0

Query: Identify whether the compound COc1cc(Cc2cnc(N)nc2N)cc(OC)c1OC [TMP, trimethoprim, reference compound] records MIC below 0.1 µg/mL.
Reply: 0.0

----------
system: Streptococcus pyogenes; assay: MIC, broth microdilution with Alamar Blue; format: cell-based; conditions: Streptococcus pyogenes, 10% FCS; read-out: MIC S. pyogenes +FCS
Assay Endpoint: MIC (mg/L)
Numbers only, in mg/L.

Examples with their reported MIC follow.
Query: Request the reported MIC associated with CCc1nc(N)nc(N)c1C#CCc1cccc(-c2cncnc2)c1 [Compound 37]
Reply: 0.16

Query: Any idea what MIC was measured for COc1cc(C(C)C#Cc2c(C)nc(N)nc2N)cc(N2CCOCC2)c1 (stereo not drawn) [Compound 31] ?
Reply: 2.94

Query: Dear colleague, I am looking for the recorded MIC of the following compound: COc1ccc(-c2ccccc2)cc1C(C)C#Cc1c(C)nc(N)nc1N (stereo not drawn) [Compound 10]
Reply: 5.7

Query: Would you kindly share the measured MIC for CCc1nc(N)nc(N)c1C#CC(C)c1cc(-c2ccccc2)ccc1OC (stereo not drawn) [Compound 11] ?
Reply: 6

Query: Reported MIC for CCc1nc(N)nc(N)c1C#CCc1cc(-c2ccncc2)ccc1OC [Compound 26] : what is it?
Reply: 0.09

Query: Give its MIC value. Item: CCc1nc(N)nc(N)c1C#CCc1cccc(-c2ccncc2)c1 [Compound 28]
Reply: 0.09

Query: Quick one: MIC of CCc1nc(N)nc(N)c1C#CCc1cc(OC)cc(-c2ccncc2)c1 [Compound 27] ?
Reply: 0.09

Query: Field request: MIC | item: COc1cc(Cc2cnc(N)nc2N)cc(OC)c1OC [TMP, trimethoprim, reference compound]
Reply: 0.58

// next entry
Query: Using the record for COc1cc(-c2ccncc2)cc(C(C)C#Cc2c(C)nc(N)nc2N)c1 (stereo not drawn) [Compound 24] , report its MIC.
Reply: 0.09
